Attribution: patent US20160115500A1

Target: T1, GAL4 activation domain fusion (ACT) to HAB1 (UniProt Q9CAJ0 23-511, limits assumed)
T1 construct: pACT-HAB1 fusion in yeast reporter strains; also called pACT-HAB1
T1 sequence (looked up): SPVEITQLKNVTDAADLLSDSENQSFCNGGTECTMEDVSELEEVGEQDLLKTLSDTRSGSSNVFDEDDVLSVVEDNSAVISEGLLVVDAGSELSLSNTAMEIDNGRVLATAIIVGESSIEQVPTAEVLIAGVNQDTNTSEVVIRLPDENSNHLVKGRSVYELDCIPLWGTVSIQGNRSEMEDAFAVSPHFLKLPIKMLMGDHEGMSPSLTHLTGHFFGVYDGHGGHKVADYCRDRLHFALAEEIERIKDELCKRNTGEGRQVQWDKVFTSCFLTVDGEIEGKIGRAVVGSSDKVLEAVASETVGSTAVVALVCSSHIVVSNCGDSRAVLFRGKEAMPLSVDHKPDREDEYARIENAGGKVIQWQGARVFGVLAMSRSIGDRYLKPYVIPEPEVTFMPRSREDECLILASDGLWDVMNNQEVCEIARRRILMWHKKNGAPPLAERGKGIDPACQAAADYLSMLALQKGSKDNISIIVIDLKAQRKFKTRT
Assay: yeast two-hybrid, X-gal; lowest fludioxonil concentration giving signal
metric: Threshold (µM)
Give the number; µM is assumed, so skip it.

binder: PYR1^K59R,E94A (receptor, not shown: small tags and cut ends, pBD-PYR1 fusion in yeast) MPSELTPEERSELKNSIAEFHTYQLDPGSCSSLHAQRIHAPPELVWSIVRRFDKPQTYRHFIKSCSVEQNFEMRVGCTRDVIVISGLPANTSTARLDILDDERRVTGFSIIGGEHRLTNYKSVTTVHRFEKENRIWTVVLESYVVDMPEGNSEDDTRMFADTVVKLNLQKLATVAEAMARNSGDGSGSQVT
Threshold, µM: 1

Would you kindly look at the next entry?
Kindly note the recorded Threshold for PYR1^K59R,Y120M (receptor, not shown: small tags and cut ends, pBD-PYR1 fusion in yeast) MPSELTPEERSELKNSIAEFHTYQLDPGSCSSLHAQRIHAPPELVWSIVRRFDKPQTYRHFIKSCSVEQNFEMRVGCTRDVIVISGLPANTSTERLDILDDERRVTGFSIIGGEHRLTNMKSVTTVHRFEKENRIWTVVLESYVVDMPEGNSEDDTRMFADTVVKLNLQKLATVAEAMARNSGDGSGSQVT , which is 100
